target: RXRα homodimer (Homo sapiens)
assay text: RXR homodimer co-transfection assay in CV-1 cells (CRBPIITKLUC reporter)
cond: RXRα homodimer cotransfection, CV-1 cells; not calculated if efficacy <10%; read-out: Agonist EC50
measured endpoint: EC50
Write your answer as a measured quantity: the number, then the unit.

Query CCOc1c(\C(C)=C/C=C/C(C)=C/C(=O)O)cc(C(C)C)nc1C(C)C [Example 3] yields EC50 of 2 nM

###

# reported pIC50; entries follow
target: RXRα homodimer (Homo sapiens, UniProt P19793)
Sequence (P19793 whole entry): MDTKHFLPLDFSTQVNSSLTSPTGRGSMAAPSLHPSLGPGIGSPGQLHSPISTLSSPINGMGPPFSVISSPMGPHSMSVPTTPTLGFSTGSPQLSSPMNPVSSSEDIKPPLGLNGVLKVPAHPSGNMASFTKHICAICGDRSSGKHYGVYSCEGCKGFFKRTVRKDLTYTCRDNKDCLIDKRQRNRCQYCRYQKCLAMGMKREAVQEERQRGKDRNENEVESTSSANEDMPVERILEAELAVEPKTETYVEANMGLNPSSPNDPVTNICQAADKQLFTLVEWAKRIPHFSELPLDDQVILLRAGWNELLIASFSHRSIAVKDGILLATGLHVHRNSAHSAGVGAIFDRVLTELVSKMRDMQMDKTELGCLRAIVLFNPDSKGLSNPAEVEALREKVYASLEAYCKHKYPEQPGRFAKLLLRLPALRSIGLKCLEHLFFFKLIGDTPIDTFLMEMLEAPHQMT
assay text: RXR homodimer co-transfection assay in CV-1 cells (CRBPIITKLUC reporter)
Type: cell-based
cond: RXRα homodimer; in presence of known RXR agonist; not calculated if efficacy <10%; read-out: Antagonist IC50
Quick note: pIC50 means taking -log10 of the concentration in moles per liter.

Noted for C/C(=C/C=C/C(C)=C/C(=O)O)c1cc(C(C)C)nc(C(C)C)c1OCC(F)(F)F : its pIC50 reads 8.10

More entries:
Lab note: measured pIC50 of CCCCOc1c(\C(C)=C/C=C/C(C)=C/C(=O)O)cc(C(C)C)nc1C(C)C was 8.46

Short answer for CCCOc1c(\C(C)=C/C=C/C(C)=C/C(=O)O)cc(C(C)C)nc1C(C)C : pIC50 was 8.39

Please fill in: pIC50 reported for C/C(=C/C=C/C(C)=C/C(=O)O)c1cc(C(C)C)nc(C(C)C)c1OCC(F)F = 8.06
